Hello, the source for this data is ChEMBL document CHEMBL1949615, in case you need it.

# SUBJECT OF TEST: Beta-2 adrenergic receptor (Cavia porcellus)
# Sequence (Q8K4Z4 whole entry): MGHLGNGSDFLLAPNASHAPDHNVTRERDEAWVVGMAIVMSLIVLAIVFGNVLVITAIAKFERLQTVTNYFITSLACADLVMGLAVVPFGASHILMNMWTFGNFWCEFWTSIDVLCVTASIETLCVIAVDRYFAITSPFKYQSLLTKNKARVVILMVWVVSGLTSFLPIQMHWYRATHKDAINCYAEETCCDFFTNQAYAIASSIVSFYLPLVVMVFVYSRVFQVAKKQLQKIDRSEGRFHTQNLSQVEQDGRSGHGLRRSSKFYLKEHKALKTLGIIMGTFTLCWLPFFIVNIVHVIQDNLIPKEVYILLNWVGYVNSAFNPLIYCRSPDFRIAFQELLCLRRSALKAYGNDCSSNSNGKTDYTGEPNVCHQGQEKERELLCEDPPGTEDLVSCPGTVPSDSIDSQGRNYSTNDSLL
# ASSAY INFO: Agonist activity at beta2 adrenoceptor in guinea pig assessed as relaxation of histamine-induced tracheal ring contraction
MEASURE: EC50 (nM)

- MOLECULE: "COc1ccc(C2=NN(CCCCCNCC(O)c3ccc(O)c(NC=O)c3)C(=O)C3CCCCC23)cc1OC (configuration not stated)"
  REPORTED: 20
- MOLECULE: "COc1ccc(C2=NN(CCCCNC[C@@H](O)c3ccc(O)c(NC=O)c3)C(=O)C3CCCCC23)cc1OC (some centres not stated)"
  REPORTED: 126
- MOLECULE: "COc1ccc(C2=NN(CCCCNCC(O)c3ccc(O)c(NC=O)c3)C(=O)C3CCCCC23)cc1OC (racemic)"
  REPORTED: 0.501
- MOLECULE: "COc1ccc(C2=NN(CCCCNC[C@H](O)c3ccc(O)c(NC=O)c3)C(=O)C3CCCCC23)cc1OC (some centres not stated)"
  REPORTED: 0.1
- MOLECULE: "CC(C)NCC(O)c1ccc(O)c(O)c1 (configuration not stated) [ISOPROTERENOL]"
  REPORTED: 31.6

P = COc1ccc(C2=NN(CCNCC(O)c3ccc(O)c(NC=O)c3)C(=O)C3CCCCC23)cc1OC (configuration not stated)
Q = COc1ccc(C2=NN(CCCCCCNCC(O)c3ccc(O)c(NC=O)c3)C(=O)C3CCCCC23)cc1OC (configuration not stated)
q: When P and Q are compared, which has the higher number for EC50? Reply with the label of the item you choose.
a: Q

* * *

# SUBJECT OF TEST: 3',5'-cyclic-AMP phosphodiesterase 4B (Homo sapiens, UniProt Q07343)
# Sequence (Q07343 whole entry): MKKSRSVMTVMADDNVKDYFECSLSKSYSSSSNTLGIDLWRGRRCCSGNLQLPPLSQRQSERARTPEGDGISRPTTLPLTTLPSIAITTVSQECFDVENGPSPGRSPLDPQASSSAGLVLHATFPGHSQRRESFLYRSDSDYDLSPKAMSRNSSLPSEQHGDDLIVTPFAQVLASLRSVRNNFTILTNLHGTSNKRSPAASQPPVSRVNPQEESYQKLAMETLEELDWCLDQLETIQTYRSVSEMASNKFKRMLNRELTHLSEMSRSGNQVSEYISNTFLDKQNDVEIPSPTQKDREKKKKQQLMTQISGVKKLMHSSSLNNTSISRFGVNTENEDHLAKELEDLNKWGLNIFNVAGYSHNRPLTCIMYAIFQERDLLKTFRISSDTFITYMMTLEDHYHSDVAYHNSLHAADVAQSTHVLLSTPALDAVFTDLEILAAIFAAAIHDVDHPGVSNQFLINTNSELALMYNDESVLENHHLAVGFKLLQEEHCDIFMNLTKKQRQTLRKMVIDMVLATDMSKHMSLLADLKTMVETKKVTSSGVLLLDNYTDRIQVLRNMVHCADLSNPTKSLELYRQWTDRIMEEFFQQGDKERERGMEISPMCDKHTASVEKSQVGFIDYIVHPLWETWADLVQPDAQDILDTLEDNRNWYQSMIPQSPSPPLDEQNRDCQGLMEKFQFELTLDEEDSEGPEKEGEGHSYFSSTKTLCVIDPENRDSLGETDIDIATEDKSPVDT
# ASSAY INFO: Inhibition of human recombinant PDE4B2-mediated cAMP hydrolysis for 30 mins by colorimetric assay
MEASURE: IC50 (nM)

- COMPOUND: "COc1ccc(C2=NN(CCCCNC[C@@H](O)c3ccc(O)c(NC=O)c3)C(=O)C3CCCCC23)cc1OC (stereo not given in full)"
  IC50 / nM: 284
- COMPOUND: "COc1ccc(C2=NN(CCCCCCNCC(O)c3ccc(O)c(NC=O)c3)C(=O)C3CCCCC23)cc1OC (stereo not given)"
  IC50 / nM: 251
- COMPOUND: "COc1ccc(C2=NN(CCCCNCC(O)c3ccc(O)c(NC=O)c3)C(=O)C3CCCCC23)cc1OC (racemic)"
  IC50 / nM: 278

A = COc1ccc(C2=NN(CCCCCNCC(O)c3ccc(O)c(NC=O)c3)C(=O)C3CCCCC23)cc1OC (stereo not given)
B = O=c1[nH]ncc2ccccc12
q: Input pair: A , B . Output: entry with lower IC50. Reply with the label of the item you choose.
a: A
(A: 257 nM, B: 520 nM)

* * *

# SUBJECT OF TEST: 3',5'-cyclic-AMP phosphodiesterase 4B (Homo sapiens, UniProt Q07343)
# ASSAY INFO: Inhibition of human recombinant PDE4B2-mediated cAMP hydrolysis for 30 mins by colorimetric assay
MEASURE: IC50 (nM)

- COMPOUND: "COc1ccc(C2=NN(CCCCNC[C@H](O)c3ccc(O)c(NC=O)c3)C(=O)C3CCCCC23)cc1OC (stereo partly drawn)"
  MEASURE: "IC50"
  MEASURE UNIT: "nM"
  REPORTED: 265

I = COc1ccc(C2=NNC(=O)C3CCCCC23)cc1OC (stereo not drawn)
II = COc1ccc(C2=NN(CCNCC(O)c3ccc(O)c(NC=O)c3)C(=O)C3CCCCC23)cc1OC (stereo not drawn)
q: When I and II are compared, which has the higher number for IC50? Reply with the label of the item you choose.
a: I
